Molecular target: LRRK2 G2019S enzyme (Homo sapiens (Human), UniProt Q5S007, G2019S)
Sequence (Q5S007 whole entry G2019S): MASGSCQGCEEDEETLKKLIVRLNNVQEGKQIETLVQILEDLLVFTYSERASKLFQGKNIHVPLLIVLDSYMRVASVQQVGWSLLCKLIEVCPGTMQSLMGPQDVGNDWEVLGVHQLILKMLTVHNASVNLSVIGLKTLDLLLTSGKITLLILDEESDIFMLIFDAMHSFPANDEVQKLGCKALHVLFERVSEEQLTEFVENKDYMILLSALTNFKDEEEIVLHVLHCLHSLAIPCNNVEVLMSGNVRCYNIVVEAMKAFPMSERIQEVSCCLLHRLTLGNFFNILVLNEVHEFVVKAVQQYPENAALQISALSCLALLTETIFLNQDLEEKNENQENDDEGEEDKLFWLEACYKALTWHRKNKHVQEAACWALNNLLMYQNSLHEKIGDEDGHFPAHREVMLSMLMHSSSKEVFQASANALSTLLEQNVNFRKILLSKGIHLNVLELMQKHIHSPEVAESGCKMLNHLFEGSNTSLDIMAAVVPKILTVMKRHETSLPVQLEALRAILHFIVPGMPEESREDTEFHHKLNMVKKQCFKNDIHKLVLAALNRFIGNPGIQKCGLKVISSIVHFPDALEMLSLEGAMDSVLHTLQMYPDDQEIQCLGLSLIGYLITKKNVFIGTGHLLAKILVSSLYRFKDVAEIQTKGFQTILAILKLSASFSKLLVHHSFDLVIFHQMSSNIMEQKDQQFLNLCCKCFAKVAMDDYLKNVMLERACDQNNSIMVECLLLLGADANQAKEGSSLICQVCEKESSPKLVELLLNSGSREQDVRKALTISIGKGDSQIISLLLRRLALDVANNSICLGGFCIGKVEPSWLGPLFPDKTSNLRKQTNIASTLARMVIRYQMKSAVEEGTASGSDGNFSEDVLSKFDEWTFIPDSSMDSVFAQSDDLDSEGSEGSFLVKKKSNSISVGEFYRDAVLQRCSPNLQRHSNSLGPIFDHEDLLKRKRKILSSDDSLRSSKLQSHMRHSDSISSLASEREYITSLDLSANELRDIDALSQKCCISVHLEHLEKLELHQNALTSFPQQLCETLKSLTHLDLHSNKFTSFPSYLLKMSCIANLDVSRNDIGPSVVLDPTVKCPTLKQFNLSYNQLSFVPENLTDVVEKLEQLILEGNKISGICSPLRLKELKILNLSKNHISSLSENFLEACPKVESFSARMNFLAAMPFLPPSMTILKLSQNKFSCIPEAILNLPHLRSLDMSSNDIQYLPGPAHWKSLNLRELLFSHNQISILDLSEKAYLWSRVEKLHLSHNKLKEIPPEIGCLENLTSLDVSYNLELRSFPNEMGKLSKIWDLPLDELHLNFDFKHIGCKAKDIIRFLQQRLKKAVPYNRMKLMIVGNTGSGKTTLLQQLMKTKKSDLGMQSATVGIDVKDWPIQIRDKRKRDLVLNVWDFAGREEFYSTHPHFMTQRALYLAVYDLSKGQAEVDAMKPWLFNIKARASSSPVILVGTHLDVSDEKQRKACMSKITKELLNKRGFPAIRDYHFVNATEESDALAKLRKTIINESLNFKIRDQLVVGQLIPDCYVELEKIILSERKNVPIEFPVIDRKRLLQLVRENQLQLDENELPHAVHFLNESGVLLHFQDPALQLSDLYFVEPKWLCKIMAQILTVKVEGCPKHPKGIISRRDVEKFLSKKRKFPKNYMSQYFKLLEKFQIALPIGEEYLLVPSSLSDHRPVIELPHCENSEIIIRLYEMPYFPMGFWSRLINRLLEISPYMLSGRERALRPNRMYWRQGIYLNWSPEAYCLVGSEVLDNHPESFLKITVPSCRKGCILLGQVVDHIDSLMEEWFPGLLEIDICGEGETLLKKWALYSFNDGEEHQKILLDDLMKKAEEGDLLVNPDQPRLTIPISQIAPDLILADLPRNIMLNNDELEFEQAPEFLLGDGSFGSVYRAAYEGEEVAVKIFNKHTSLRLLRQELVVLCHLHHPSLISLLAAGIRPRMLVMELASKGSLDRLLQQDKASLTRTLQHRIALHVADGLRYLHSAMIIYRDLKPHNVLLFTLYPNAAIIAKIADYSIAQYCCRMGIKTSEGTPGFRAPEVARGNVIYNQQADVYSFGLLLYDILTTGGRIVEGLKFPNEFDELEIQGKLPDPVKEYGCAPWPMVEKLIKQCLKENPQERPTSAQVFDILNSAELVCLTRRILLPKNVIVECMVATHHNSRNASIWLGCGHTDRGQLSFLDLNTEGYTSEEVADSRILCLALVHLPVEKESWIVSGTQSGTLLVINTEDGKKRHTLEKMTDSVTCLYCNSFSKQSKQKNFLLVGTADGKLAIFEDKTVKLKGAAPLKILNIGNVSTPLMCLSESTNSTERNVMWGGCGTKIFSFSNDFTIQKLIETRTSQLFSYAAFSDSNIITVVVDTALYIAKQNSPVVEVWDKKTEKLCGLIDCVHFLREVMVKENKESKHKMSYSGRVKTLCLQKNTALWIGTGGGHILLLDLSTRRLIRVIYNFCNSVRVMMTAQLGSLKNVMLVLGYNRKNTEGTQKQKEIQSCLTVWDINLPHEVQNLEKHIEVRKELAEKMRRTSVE
Experiment: LRRK2 G2019S TR-FRET biochemical assay (LRRKtide substrate)
Settings: 134 μM ATP
Protocol: Detection Reaction Conditions • 1× TR-FRET dilution buffer • 10 mM EDTA • 2 nM antibody • 23° C. reaction temperature • 10 μL total reaction volume Compounds were prepared by initially diluting to 1 mM with DMSO. 35 μL of reference compound solution, 35 μL of test compound solution, and 35 μL HPE were successively added to the source plate (384-well assay plate, Labcyte). The plates were centrifuged at 2500 rpm for 1 minute and sealed in foil. […]
pIC50: −log10 of the molar value.
Quantity: pIC50

Guide cases for pIC50, answers given:
| Compound | pIC50 |
| --- | --- |
| CNc1nc(Nc2cnn(C3CCCC3(C)O)c2C)ncc1C(F)(F)F (single isomer, unassigned) [Compound 30] | 7.22 to 7.52 |
| CCNc1nc(Nc2cc(C(C)n3nccn3)nn2C2CC2)ncc1Br (stereo not shown) | > 7.52 |
| CCNc1nc(Nc2cc(C(C)(C)n3nccn3)nn2C2CCC2)ncc1C(F)(F)F | > 7.52 |
| COc1nc(Nc2cnn(C3(C)CCNC3=O)c2C)ncc1Br (stereo not shown) | > 7.52 |
| CNc1nc(Nc2cn(C3CC4CCC(C3)N4C)nc2C)ncc1C(F)(F)F (stereo not shown) | < 7.22 |
| CCNc1nc(Nc2cc(C3(C)CCn4ncnc43)nn2C2CC2)ncc1C(F)(F)F (stereo not shown) | < 7.22 |

[Q] Item under review: CCNc1nc(Nc2cc(C3(C)CCn4ccnc43)nn2C2CC2)ncc1C(F)(F)F (stereo not shown) [Compound 167] . Reported pIC50?
[A] > 7.52

[Q] Item under review: "CCNc1nc(Nc2cn(C3CC3)nc2[C@H]2C[C@@H](n3nccn3)C2)ncc1C(F)(F)F" . Reported pIC50?
[A] > 7.52

[Q] Item under review: CCNc1nc(Nc2cnn(C3CNCCC3(F)F)c2C)ncc1C(F)(F)F (single isomer, unassigned) [Compound 200] . Reported pIC50?
[A] > 7.52

[Q] Item under review: "CNc1nc(Nc2cc([C@]34C[C@H]3COC4=O)nn2C2CC2)ncc1C(F)(F)F" . Reported pIC50?
[A] > 7.52

[Q] Item under review: "CCNc1nc(Nc2ccnn2[C@H]2C[C@@H](n3ccnn3)C2)ncc1C(F)(F)F" . Reported pIC50?
[A] 7.22 to 7.52

[Q] Item under review: "CCNc1nc(Nc2cn(C3CS(=O)(=O)C3)nc2C2CC2)ncc1C(F)(F)F" . Reported pIC50?
[A] > 7.52

[Q] Item under review: "CCNc1nc(Nc2cc(C(C)(C)S(C)(=O)=O)nn2C2CC2)ncc1Br" . Reported pIC50?
[A] > 7.52

----------
molecular target: LRRK2 G2019S enzyme (Homo sapiens (Human), UniProt Q5S007, G2019S); test: LRRK2 G2019S TR-FRET biochemical assay (LRRKtide substrate); settings: 134 μM ATP
pIC50: −log10 of the molar value.
Recorded pIC50 by entry

Guide cases for pIC50, answers given:
| Compound | pIC50 |
| --- | --- |
| COc1nc(Nc2cn(C3(C)CCNC3=O)nc2C)ncc1Br (single isomer, unassigned) [Compound 64B] | > 7.52 |
| CCNc1nc(Nc2cc(C(C)=O)nn2C2CC2)ncc1C(F)(F)F | < 7.22 |
| CCNc1nc(Nc2cc([C@]34C[C@H]3COC4=O)nn2C2CC2)ncc1C(F)(F)F | > 7.52 |

[Q] Item under review: "CCNc1nc(Nc2ccnn2[C@H]2C[C@@H](O)C2)ncc1C(F)(F)F" . Reported pIC50?
[A] > 7.52

[Q] Item under review: [2H]C([2H])([2H])n1nc(C2(C)CCOC2=O)cc1Nc1ncc(C(F)(F)F)c(NCC)n1 (stereo not shown) [Compound 173] . Reported pIC50?
[A] > 7.52

[Q] Item under review: "CNc1nc(Nc2cc([C@@]34C[C@@H]3COC4=O)nn2C2CC2)ncc1C(F)(F)F" . Reported pIC50?
[A] > 7.52

[Q] Item under review: CCN1CCC(F)(F)C(n2ncc(Nc3ncc(C(F)(F)F)c(NC)n3)c2Cl)C1 (single isomer, unassigned) [Compound 203] . Reported pIC50?
[A] > 7.52

[Q] Item under review: "CCNc1nc(Nc2cn(S(C)(=O)=O)nc2C2CC2)ncc1Br" . Reported pIC50?
[A] > 7.52

[Q] Item under review: "CNc1nc(Nc2cnn(C3CC4(COC4)C3)c2Cl)ncc1C(F)(F)F" . Reported pIC50?
[A] > 7.52

[Q] Item under review: "Cc1nn(C(C)(C)C#N)cc1Nc1ncc(Br)c(NCC(F)F)n1" . Reported pIC50?
[A] > 7.52

[Q] Item under review: CCNc1nc(Nc2cn(C3(CF)CCOC3=O)nc2C)ncc1C(F)(F)F (single isomer, unassigned) [Compound 216] . Reported pIC50?
[A] > 7.52

[Q] Item under review: "CCNc1nc(Nc2cn(C(C)(C)C#N)nc2C)ncc1Br" . Reported pIC50?
[A] > 7.52

[Q] Item under review: "CNc1nc(Nc2cn(CC34CC(C#N)(C3)C4)nc2C)ncc1C(F)(F)F" . Reported pIC50?
[A] < 7.22

[Q] Item under review: CCNc1nc(Nc2cn(C3(C)CCOC3=O)nc2Cl)ncc1C(F)(F)F (single isomer, unassigned) . Reported pIC50?
[A] > 7.52

[Q] Item under review: "CCNc1nc(Nc2cc(C(C)(C)O)nn2C2CCC2)ncc1C(F)(F)F" . Reported pIC50?
[A] > 7.52

[Q] Item under review: CCNc1nc(Nc2cnn3c2CC(C#N)C3)ncc1C(F)(F)F (single isomer, unassigned) [Compound 52A] . Reported pIC50?
[A] > 7.52

----------
assay: Metabolic stability in human liver microsomes; type: in vitro ADME; conditions: 1 μM compound, 0.5 mg/mL protein, projected hepatic clearance, well-stirred model
Quantity: Human liver microsomes CLhep (mL/min/kg)

| Compound | Reading Unit | Human liver microsomes CLhep |
| --- | --- | --- |
| CCNc1nc(Nc2cn(C(C)(C)C#N)nc2C2CC2)ncc1Br | mL/min/kg | 17.663 |

I. CCNc1nc(Nc2cc(C3(C)CCOC3=O)nn2C2CC2)ncc1C(F)(F)F (single isomer, unassigned)
II. CCNc1nc(Nc2cc(C(C)(C)n3nccn3)nn2C2CC2)ncc1C(F)(F)F
III. CCNc1nc(Nc2cc(C(C)(C)C#N)nn2C2CC2)ncc1Br
[Q] Rank the items in ascending order with respect to Human liver microsomes CLhep. To answer, write out the labels according to the requested order.
[A] II, I, III
(II: 4.81 mL/min/kg, I: 7.81 mL/min/kg, III: 13.508 mL/min/kg)

----------
target: LRRK2 G2019S enzyme (Homo sapiens (Human), UniProt Q5S007, G2019S); assay: LRRK2 G2019S TR-FRET biochemical assay (LRRKtide substrate); conditions: 134 μM ATP
pIC50: −log10 of the molar value.
Recorded pIC50 by entry

Guide cases for pIC50, answers given:
| Compound | pIC50 |
| --- | --- |
| Cc1nn(C2(C)CCOC2=O)cc1Nc1ncc(C(F)(F)F)c(C2CC2)n1 (single isomer, unassigned) [Compound 103] | > 7.52 |
| [2H]C([2H])([2H])Nc1nc(Nc2cn(C(C#N)(C([2H])([2H])[2H])C([2H])([2H])[2H])nc2C([2H])([2H])[2H])ncc1C(F)(F)F | > 7.52 |

[Q] I'm curious: which pIC50 was measured for "CCNc1nc(Nc2cc([C@H]3C[C@H]3C(=O)OCC)nn2C2CC2)ncc1C(F)(F)F" tested on LRRK2 G2019S enzyme (Homo sapiens (Human), UniProt Q5S007, G2019S)?
[A] > 7.52
